Assay Endpoint: melting point

Example results:
{"Compound": "Cc1c(NC(=O)c2ccc(-c3ccccc3)cc2F)ccc2cc(CN3CCCC3)cnc12 [Example 149]", "Value Measured": "166 to 168 °C"}
{"Compound": "Cc1cc2cc(CN3CCC(CC(=O)N(C)C)CC3)cnc2cc1NC(=O)c1ccc(-c2ccc(F)cc2)cc1 [Example 268]", "Value Measured": "219 °C"}
{"Compound": "CCC(=O)Oc1ccc(C(=O)Nc2ccc3cc(CN4CCCC4)cnc3c2C)cc1 [Example 330]", "Value Measured": "146 to 147 °C"}
{"Compound": "Cc1cc2cc(CN3CCC(CCCC(N)=O)CC3)cnc2cc1NC(=O)c1ccc(-c2ccc(F)cc2)cc1 [Example 264]", "Value Measured": "228 °C"}
{"Compound": "COc1ccc(-c2ccc(C(=O)Nc3cc4ncc(CN5CCCC5)cc4cc3C)c(F)c2)cc1 [Example 227]", "Value Measured": "187 to 190 °C"}

Dear colleague, I am looking for the recorded melting point of the following compound: Cc1c(NC(=O)c2ccc(-c3ccccc3)c(F)c2)ccc2cc(CN3CCCC3)cnc12 [Example 151]
156 to 158 °C

Dear colleague, I am looking for the recorded melting point of the following compound: Cc1c(NC(=O)c2ccc(-c3cccc(F)c3)cc2)ccc2cc(CN3CCCC3)cnc12 [Example 112]
158 to 159 °C

Dear colleague, I am looking for the recorded melting point of the following compound: Cc1c(NC(=O)c2ccc(-c3cc4ccccc4s3)cc2)ccc2cc(CN3CCCC3)cnc12 (hydrate or solvate) [Example 120]
217 to 218 °C

* * *

Assay Endpoint: melting point

{"Compound Smiles": "COc1ccc(-c2ccc(C(=O)Nc3ccc4cc(CN5CCCCCC5)cnc4c3C)cc2)cc1", "Value Measured": "165 to 167 °C"}
{"Compound Smiles": "CCNC(=O)CC1CCN(Cc2cnc3cc(NC(=O)c4ccc(-c5ccc(F)cc5)cc4)c(C)cc3c2)CC1", "Value Measured": "251 °C"}
{"Compound Smiles": "Cc1cc2cc(CN3CCC(C(=O)N4CCCCC4)CC3)cnc2cc1NC(=O)c1ccc(-c2ccc(F)cc2)cc1", "Value Measured": "250 °C"}
{"Compound Smiles": "Cc1cc2cc(CN3CCC(CCCC(=O)N4CCCCC4)CC3)cnc2cc1NC(=O)c1ccc(-c2ccc(F)cc2)cc1", "Value Measured": "179 °C"}
{"Compound Smiles": "Cc1ccc(-c2ccc(C(=O)Nc3ccc4cc(CN5CCCC5)cnc4c3F)c(F)c2)cc1", "Value Measured": "173 °C"}
{"Compound Smiles": "Cc1ccc(-c2ccc(C(=O)Nc3ccc4cc(CN5CCCC5)cnc4c3)cc2)cc1", "Value Measured": "206 to 208 °C"}

Dear colleague, I am looking for the recorded melting point of the following compound: `Cc1c(NC(=O)c2ccc(-c3ccc4c(c3)CCCO4)cc2)ccc2cc(CN3CCCC3)cnc12`
195 to 197 °C

Dear colleague, I am looking for the recorded melting point of the following compound: `Cc1cc2cc(CN3CCCC3)cnc2cc1NC(=O)c1ccc(-c2ccc(F)c(F)c2)cc1`
220 to 223 °C

Dear colleague, I am looking for the recorded melting point of the following compound: `Cc1cc2cc(CN3CCCCCC3)cnc2cc1NC(=O)c1ccc(-c2ccc(F)cc2)cc1F`
170 °C

Dear colleague, I am looking for the recorded melting point of the following compound: `Cc1cc2cc(CN3CCCC3)cnc2cc1NC(=O)c1ccc(-c2ccc(C(F)(F)F)cc2)cc1`
216 to 219 °C

Dear colleague, I am looking for the recorded melting point of the following compound: `CCNC(=O)CC1CCN(Cc2cnc3cc(NC(=O)c4ccc(-c5ccc(F)cc5)cc4)ccc3c2)CC1`
224 to 227 °C

Dear colleague, I am looking for the recorded melting point of the following compound: `Cc1c(NC(=O)c2ccc(-c3ccc(F)cc3)cc2)ccc2cc(CN3CCC(CC(=O)N(C)C)CC3)cnc12`
200 to 201 °C

Dear colleague, I am looking for the recorded melting point of the following compound: `Cc1c(NC(=O)c2ccc(-c3ccc(Cl)cc3)c(F)c2)ccc2cc(CN3CCCC3)cnc12`
190 to 192 °C

Dear colleague, I am looking for the recorded melting point of the following compound: `O=C(Nc1cc2ncc(CN3CCCC3)cc2cc1F)c1ccc(-c2ccc(Cl)cc2)cc1`
218 to 220 °C

Dear colleague, I am looking for the recorded melting point of the following compound: `Cc1cc2cc(CN3CCCC3)cnc2cc1NC(=O)c1ccc(-c2ccccc2F)cc1`
148 to 149 °C

Dear colleague, I am looking for the recorded melting point of the following compound: `Cc1cc2cc(CN3CCC(CC(N)=O)CC3)cnc2cc1NC(=O)c1ccc(-c2ccc(F)cc2)cc1`
249 °C

* * *

melting point values, listed per item

{"Compound": "Cc1c(NC(=O)c2ccc(-c3ccc(Cl)s3)cc2F)ccc2cc(CN3CCCCCC3)cnc12 (hydrate or solvate)", "melting point": "166 to 167 °C"}
{"Compound": "O=C(Nc1cc2ncc(CN3CCCC3)cc2cc1F)c1ccc(-c2ccc(C(F)(F)F)cc2)cc1", "melting point": "209 to 212 °C"}
{"Compound": "O=C(Nc1ccc2cc(CN3CCCC3)cnc2c1F)c1ccc(-c2ccccc2)cc1F", "melting point": "136 to 137 °C"}

Let's switch to this compound now.
Dear colleague, I am looking for the recorded melting point of the following compound: `Cc1c(NC(=O)c2ccc(-c3ccc(F)cc3)cc2)ccc2cc(CN3CCC(CCCC(=O)N4CCCCC4)CC3)cnc12`
154 to 156 °C

* * *

Assay Endpoint: melting point

Example results:
{"Compound": "Cc1cc2cc(CN(C)C)cnc2cc1NC(=O)c1ccc(-c2ccc(F)cc2)cc1 [Example 248]", "melting point": "183 to 186 °C"}
{"Compound": "Cc1c(NC(=O)c2ccc(OCc3ccc(F)cc3)cc2)ccc2cc(CN3CCCC3)cnc12 (hydrate or solvate) [Example 123]", "melting point": "177 to 178 °C"}
{"Compound": "COc1ccc(-c2ccc(C(=O)Nc3ccc4cc(CN5CCCC5)cnc4c3C)cn2)cc1 [Example 96]", "melting point": "180 to 182 °C"}
{"Compound": "CCNC(=O)CCC1CCN(Cc2cnc3cc(NC(=O)c4ccc(-c5ccc(F)cc5)cc4)c(C)cc3c2)CC1 [Example 255]", "melting point": "227 to 230 °C"}

Dear colleague, I am looking for the recorded melting point of the following compound: Cc1c(NC(=O)c2ccc(-c3ccccc3F)cc2)ccc2cc(CN3CCCC3)cnc12 [Example 99]
133 to 135 °C

Dear colleague, I am looking for the recorded melting point of the following compound: Cc1ccc(C2CCN(C(=O)Nc3ccc4cc(CN5CCCCCC5)cnc4c3)CC2)cc1 [Example 35]
240 °C (dec.)

Dear colleague, I am looking for the recorded melting point of the following compound: `Cc1cc2cc(CN3CCCC3)cnc2cc1NC(=O)c1ccc(-c2ccccc2Cl)cc1.Cl`
283 °C

Dear colleague, I am looking for the recorded melting point of the following compound: Cc1c(NC(=O)c2ccc(-c3ccc(Cl)s3)cc2F)ccc2cc(CN3CCCCC3)cnc12 (hydrate or solvate) [Example 172]
205 to 206 °C

Dear colleague, I am looking for the recorded melting point of the following compound: Cc1cc2cc(CN3CCC(C(N)=O)CC3)cnc2cc1NC(=O)c1ccc(-c2ccc(F)cc2)cc1 [Example 276]
265 °C

Dear colleague, I am looking for the recorded melting point of the following compound: Cc1ccc(C2CCN(C(=O)Nc3ccc4cc(CN5CCCC5)cnc4c3)CC2)cc1 [Example 15]
244 to 246 °C

Dear colleague, I am looking for the recorded melting point of the following compound: Cc1c(NC(=O)c2ccc(-c3ccc(F)cc3F)cc2)ccc2cc(CN3CCCC3)cnc12 [Example 100]
177 to 179 °C

Dear colleague, I am looking for the recorded melting point of the following compound: Cc1cc2cc(CN3CCCC3)cnc2cc1NC(=O)c1ccc(-c2ccccc2)cc1F [Example 226]
180 to 183 °C

Dear colleague, I am looking for the recorded melting point of the following compound: CNC(=O)CC1CCN(Cc2cnc3c(C)c(NC(=O)c4ccc(-c5ccc(F)cc5)cc4)ccc3c2)CC1 [Example 201]
229 to 231 °C

Dear colleague, I am looking for the recorded melting point of the following compound: Cc1cc2cc(CN3CCCCCC3)cnc2cc1NC(=O)c1ccc(-c2cc3ccccc3o2)cc1 [Example 240]
207 °C

Dear colleague, I am looking for the recorded melting point of the following compound: Cc1c(NC(=O)c2ccc(-c3ccc(Cl)s3)cc2F)ccc2cc(CN3CCCC3)cnc12 (hydrate or solvate) [Example 143]
160 to 162 °C

Dear colleague, I am looking for the recorded melting point of the following compound: CCc1ccc(-c2ccc(C(=O)Nc3ccc4cc(CN5CCCC5)cnc4c3C)c(F)c2)cc1 [Example 140]
178 to 179 °C

Dear colleague, I am looking for the recorded melting point of the following compound: CCNC(=O)CCCC1CCN(Cc2cnc3cc(NC(=O)c4ccc(-c5ccc(F)cc5)cc4)c(C)cc3c2)CC1 [Example 261]
240 °C

Dear colleague, I am looking for the recorded melting point of the following compound: Cc1c(NC(=O)c2ccc(-c3ccc(F)cc3)cc2)ccc2cc(CN3CCC(CCCC(=O)N(C)C)CC3)cnc12 [Example 208]
202 to 204 °C

Dear colleague, I am looking for the recorded melting point of the following compound: COc1ccc(-c2ccc(C(=O)Nc3cc4ncc(CN5CCCC5)cc4cc3F)c(F)c2)cc1 [Example 59]
174 to 176 °C

Dear colleague, I am looking for the recorded melting point of the following compound: Cc1c(NC(=O)c2ccc(-c3ccc(OC(F)(F)F)cc3)cc2)ccc2cc(CN3CCCC3)cnc12 [Example 103]
200 to 202 °C

Dear colleague, I am looking for the recorded melting point of the following compound: Cc1ccc(-c2ccc(C(=O)Nc3ccc4cc(CN5CCCC5)cnc4c3)c(F)c2)cc1 [Example 277]
173 °C

Dear colleague, I am looking for the recorded melting point of the following compound: CCN(CC)Cc1cnc2cc(NC(=O)c3ccc(-c4ccc(F)cc4)cc3)c(C)cc2c1 [Example 249]
145 to 148 °C

Dear colleague, I am looking for the recorded melting point of the following compound: O=C(Nc1cc2ncc(CN3CCCC3)cc2cc1Cl)c1ccc(-c2ccc(Cl)cc2)cc1 [Example 25]
188 °C (dec.)

Dear colleague, I am looking for the recorded melting point of the following compound: CNC(=O)C1CCN(Cc2cnc3cc(NC(=O)c4ccc(-c5ccc(F)cc5)cc4)c(C)cc3c2)CC1 [Example 275]
257 °C

Dear colleague, I am looking for the recorded melting point of the following compound: CCN(CC)C(=O)CC1CCN(Cc2cnc3cc(NC(=O)c4ccc(-c5ccc(F)cc5)cc4)c(C)cc3c2)CC1 [Example 266]
197 °C

Dear colleague, I am looking for the recorded melting point of the following compound: Cc1ccccc1-c1ccc(C(=O)Nc2ccc3cc(CN4CCCC4)cnc3c2C)cc1 [Example 111]
150 to 151 °C

Dear colleague, I am looking for the recorded melting point of the following compound: COc1cc2cc(CN3CCCC3)cnc2cc1NC(=O)c1ccc(-c2ccc(Cl)cc2)cc1 [Example 23]
271 °C (dec.)
